Listing of recorded GI50 by entry.
- Test system: SF-268
- EXPERIMENT_SUMMARY: NCI tumour cell line growth inhibition, 48 h
Activity calls are given as the source filed them. No stated cut-off is given here; in the data, active = GI50 up to about 1.1 µM and inactive = higher. Where a SMILES comes first, the peptide text is derived from it. [ ]: non-standard residue; d: D form. The star is where a group is joined. ξ: configuration not given here. ξPhe(4-NO2) = NC(Cc1ccc([N+](=O)[O-])cc1)C(=O)O; Boc = CC(C)(C)OC(=O)*; OBn = c1ccc(CO*)cc1
PROPERTY_MEASURED: GI50

molecule=O=c1oc2c(ccc3ccccc32)cc1C1=CSC2=NCCN12 property_measured=GI50 measured="57.9 µM (inactive)"
molecule="COc1cc2c(c(OC)c1OC)-c1c(cc3c(c1OC)OCO3)CC(C)C(C)(O)C2OC(=O)c1ccccc1 (stereo not drawn)" property_measured=GI50 measured="53.5 µM (inactive)"
molecule=Nc1nc(N)c(N=O)c(OCC2CCCCC2)n1 property_measured=GI50 measured="8.49 µM (inactive)"
molecule=OCCSCCCSCCO property_measured=GI50 measured="> 100 µM (inactive)"
molecule="CCC(C)C(NC(=O)c1cccc2c(=O)c3ccccc3[nH]c12)C(=O)O (stereo not drawn)" property_measured=GI50 measured="87.5 µM (inactive)"
molecule="O=C(NN1C(=O)C(Cl)C1c1ccc([N+](=O)[O-])cc1)c1ccccc1O (stereo not drawn)" property_measured=GI50 measured="> 100 µM (inactive)"
molecule=c1ccc2c(c1)nc1n2CCCn2ccnc2-1 property_measured=GI50 measured="> 100 µM (inactive)"
molecule=CC(C)N1CSC(=S)N(Cc2ccccc2)C1 property_measured=GI50 measured="4.38 µM (inactive)"
molecule=OC1(c2cc3ccccc3s2)CCCCC1 property_measured=GI50 measured="29.2 µM (inactive)"
molecule=NS(=O)(=O)c1nnc(NC(=O)CCC(=O)O)s1 property_measured=GI50 measured="> 100 µM (inactive)"
molecule=Cc1ccc(/N=C2/SC(c3ccc(C)cc3)(c3ccc(C)cc3)c3ccccc32)cc1 property_measured=GI50 measured="> 100 µM (inactive)"
molecule=Cc1ccc(Cl)c2c(=O)c3ccc(N)cc3sc12 property_measured=GI50 measured="27.9 µM (inactive)"
molecule="CC(C)(C)OC(=O)NC(Cc1ccc([N+](=O)[O-])cc1)C(=O)NCC(=O)OCc1ccccc1 (stereo not drawn) (Boc-[ξPhe(4-NO2)]-Gly-OBn)" property_measured=GI50 measured="19.5 µM (inactive)"
